# target_of_assay: CD28 (human) (UniProt P10747)
quantity_measured: IL-2 luciferase reporter, fold increase over WT CD80-IgV-Fc at 5.0 nM (fold)

[1] variant CD80 IgV-Fc E35D/D46V/M47V/V68M/L85Q (Fc fusion) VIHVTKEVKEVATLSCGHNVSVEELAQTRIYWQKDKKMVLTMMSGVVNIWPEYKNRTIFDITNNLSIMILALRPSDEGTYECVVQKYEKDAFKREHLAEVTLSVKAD
[2] variant CD80 IgV-Fc M47V (Fc fusion) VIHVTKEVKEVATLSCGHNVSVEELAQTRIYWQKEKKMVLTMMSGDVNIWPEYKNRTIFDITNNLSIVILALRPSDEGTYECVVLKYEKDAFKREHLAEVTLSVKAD
Q: Choose between 1 and 2 : whose measured IL-2 luciferase reporter, fold increase over WT CD80-IgV-Fc at 5.0 nM value is numerically larger? Write down the label attached to your selection.
Result: 1
